Listed compounds paired with reported TGI
# Tested on: KM12 colon
# assay remarks: NCI tumour cell line growth inhibition, 48 h

Query :: Fill: TGI (KM12 colon) for this compound O=c1[nH]nc(Cc2ccccc2)n1O
Result :: > 100 µM

Query :: Fill: TGI (KM12 colon) for this compound COC1=C(OC)C23CCc4ccc(OC)c(O)c4C2(CCN3)CC1=O (stereo unspecified)
Result :: > 100 µM

Query :: Fill: TGI (KM12 colon) for this compound CC(=O)Nc1ccc2c(C3=C(c4cn(C)c5ccccc45)C(=O)NC3=O)cn(C)c2c1
Result :: > 15 µM

Query :: Fill: TGI (KM12 colon) for this compound CC(C)OP(=O)(c1ccccc1)c1ccc2c(c1)OCCOCCOCCOCCO2 (stereo unspecified)
Result :: > 100 µM
